Assay: Pharmacokinetics and total colon distribution after single oral administration
Format: in vivo, male C57BL/6 mice
Conditions: male, C57BL/6, mouse, total colon; mice, 8 h; Ex. 16 measured after oral 5 mg/kg of Ex. 19 (Na salt); read-out: total colon level

{"substance smiles": "COc1cc(Nc2cc(Oc3ccc(NC(=O)Nc4cc(C(C)(C)C)cc(NS(C)(=O)=O)c4OC)c4ccccc34)ccn2)ccc1C(=O)NCCOCCOCCO", "value units": "ng/g", "concentration at 8 h": 3420}

###

Test system: Jurkat cells
Experiment: Cell cytotoxicity assay (r)
Format: cell-based, human
Conditions: 24 hours, 5 μg/mL
Please enter satisfied where % Viability at 5 μg/mL is greater than or equal to 80%, and not satisfied where it is lower.

{"substance smiles": "COc1cc(Nc2cc(Oc3ccc(NC(=O)Nc4cc(C(C)(C)C)cc(NS(C)(=O)=O)c4OC)c4ccccc34)ccn2)ccc1C(=O)NCCN1CCN(C)CC1(C)C", "qualitative label": "not satisfied"}
{"substance smiles": "COc1cc(Nc2cc(Oc3ccc(NC(=O)Nc4cc(C(C)(C)C)cc(NS(C)(=O)=O)c4OC)c4ccccc34)ccn2)ccc1C(=O)NCCN1CCN(C(C)C)CC1", "qualitative label": "not satisfied"}
{"substance smiles": "COc1cc(Nc2cc(Oc3ccc(NC(=O)Nc4cc(C(C)(C)C)cc(NS(C)(=O)=O)c4OC)c4ccccc34)ccn2)ccc1C(=O)NC(CO)(CO)CO", "qualitative label": "not satisfied"}
{"substance smiles": "COc1cc(Nc2cc(Oc3ccc(NC(=O)Nc4cc(C(C)(C)C)cc(NS(C)(=O)=O)c4OC)c4ccccc34)ccn2)ccc1C(=O)NCCN1CCN(C(=O)CC[C@H](N)C(=O)O)CC1", "qualitative label": "satisfied"}
{"substance smiles": "COc1cc(Nc2cc(Oc3ccc(NC(=O)Nc4cc(C(C)(C)C)cc(NS(C)(=O)=O)c4OC)c4ccccc34)ccn2)cc(OC)c1C(=O)NCCOCCOCCOP(=O)(O)O", "qualitative label": "satisfied"}

###

For reference, IC50 measured on GSK 3α (Homo sapiens (Human), UniProt P49840):

{"substance smiles": "COc1cc(Nc2cc(Oc3ccc(NC(=O)Nc4cc(C(C)(C)C)cc(NS(C)(=O)=O)c4OC)c4ccccc34)ccn2)ccc1C(=O)NCCOCCOCCC(=O)O", "IC50 (nM)": 412}
{"substance smiles": "COc1cc(Nc2cc(Oc3ccc(NC(=O)Nc4cc(C(C)(C)C)cc(NS(C)(=O)=O)c4OC)c4ccccc34)ccn2)cc(OC)c1C(=O)NCCN1CCOCC1", "IC50 (nM)": 3000}
{"substance smiles": "COc1cc(Nc2cc(Oc3ccc(NC(=O)Nc4cc(C(C)(C)C)cc(NS(C)(=O)=O)c4OC)c4ccccc34)ccn2)ccc1C(=O)NCCCN1CCCOCC1", "IC50 (nM)": 2640}

###

Experiment: Solubility in fasted-state simulated colonic fluid (FaSSCoF) at pH 6.5
Type: physicochemical
Conditions: 25 °C, pH 6.5, fassgf or other biorelevant, thermodynamic from solid, FaSSCoF pH 6.5, 25° C., 24 h; Run 1; read-out: pH 6.5 FaSSCoF Solubility (mg/mL) Run 1
In this section we review reported solubility thermodynamic at 24 h values for a set of molecules.
quantity measured: solubility thermodynamic at 24 h (mg/mL)

{"molecule": "COc1cc(Nc2cc(Oc3ccc(NC(=O)Nc4cc(C(C)(C)C)cc(NS(C)(=O)=O)c4OC)c4ccccc34)ccn2)ccc1C(=O)NC[C@@H]1O[C@H](CO)[C@@H](O)[C@H](O)[C@H]1O", "recorded result": 0.005}
{"molecule": "CCOP(C)(=O)c1ccc(Nc2cc(Oc3ccc(NC(=O)Nc4cc(C(C)(C)C)cc(NS(C)(=O)=O)c4OC)c4ccccc34)ccn2)cc1OC (centres unmarked)", "recorded result": 0.003}

###

Test: Solubility in fasted-state simulated colonic fluid (FaSSCoF) at pH 6.5
Assay type: physicochemical
Settings: 25 °C, pH 6.5, fassgf or other biorelevant, thermodynamic from solid, pH 6.5 FaSSCoF Solubility (mg/mL) Run 1
Where a name gives a salt, the structure may show the parent alone.

{"molecule": "COc1cc(Nc2cc(Oc3ccc(NC(=O)Nc4cc(C(C)(C)C)cc(NS(C)(=O)=O)c4OC)c4ccccc34)ccn2)ccc1C(=O)NCCOCCOCCOP(=O)(O)O [19 (ammonium salt)]", "solubility thermodynamic at 24 h / µg/mL": 946}
{"molecule": "COc1cc(Nc2cc(Oc3ccc(NC(=O)Nc4cc(C(C)(C)C)cc(NS(C)(=O)=O)c4OC)c4ccccc34)ccn2)ccc1-c1nn[nH]n1", "solubility thermodynamic at 24 h / µg/mL": 12}
{"molecule": "COc1cc(Nc2cc(Oc3ccc(NC(=O)Nc4cc(C(C)(C)C)cc(NS(C)(=O)=O)c4OC)c4ccccc34)ccn2)ccc1C(=O)NCCN1CCN(C(=O)CC[C@H](N)C(=O)O)CC1", "solubility thermodynamic at 24 h / µg/mL": 9}
{"molecule": "CCC(=O)NS(=O)(=O)c1ccc(Nc2nccc(Oc3ccc(NC(=O)Nc4cc(C(C)(C)C)cc(NS(C)(=O)=O)c4OC)c4ccccc34)n2)cc1OC [17(bk) (sodium salt)]", "solubility thermodynamic at 24 h / µg/mL": 42}
{"molecule": "COc1cc(Nc2cc(Oc3ccc(NC(=O)Nc4cc(C(C)(C)C)cc(NS(C)(=O)=O)c4OC)c4ccccc34)ccn2)ccc1C(=O)NCCNC(=O)CCC(=O)O [17(cd) (hydrochloride salt)]", "solubility thermodynamic at 24 h / µg/mL": 51}

###

In this section we review reported pKd values for a set of compounds.
Biological target: Syk (Homo sapiens (Human), UniProt P43405)
pKd: −log10 of the molar value.

{"substance smiles": "COc1cc(Nc2cc(Oc3ccc(NC(=O)Nc4cc(C(C)(C)C)cc(NS(C)(=O)=O)c4OC)c4ccccc34)ccn2)ccc1C(=O)NCCN1CCOCC1", "study target": "Syk (Homo sapiens (Human), UniProt P43405)", "pKd": 7.74}
{"substance smiles": "COc1cc(Nc2cc(Oc3ccc(NC(=O)Nc4cc(C(C)(C)C)cc(NS(C)(=O)=O)c4OC)c4ccccc34)ccn2)ccc1P(C)(=O)O", "study target": "Syk (Homo sapiens (Human), UniProt P43405)", "pKd": 8.18}

###

Experiment: Pharmacokinetics and total colon distribution after single oral administration
Type: in vivo, male C57BL/6 mice
Details: male, C57BL/6, mouse, blood; mice, oral 5 mg/kg, 2 h; measured cpd = dosed cpd (19, 47 as Na salt); read-out: Mean blood concentration

{"substance smiles": "COc1cc(Nc2cc(Oc3ccc(NC(=O)Nc4cc(C(C)(C)C)cc(NS(C)(=O)=O)c4OC)c4ccccc34)ccn2)cc(OC)c1C(=O)NCCOCCOCCOP(=O)(O)O", "concentration at 2 h": "0 ng/mL"}

###

Molecular target: UniProt Q12809
Sequence (Q12809 whole entry): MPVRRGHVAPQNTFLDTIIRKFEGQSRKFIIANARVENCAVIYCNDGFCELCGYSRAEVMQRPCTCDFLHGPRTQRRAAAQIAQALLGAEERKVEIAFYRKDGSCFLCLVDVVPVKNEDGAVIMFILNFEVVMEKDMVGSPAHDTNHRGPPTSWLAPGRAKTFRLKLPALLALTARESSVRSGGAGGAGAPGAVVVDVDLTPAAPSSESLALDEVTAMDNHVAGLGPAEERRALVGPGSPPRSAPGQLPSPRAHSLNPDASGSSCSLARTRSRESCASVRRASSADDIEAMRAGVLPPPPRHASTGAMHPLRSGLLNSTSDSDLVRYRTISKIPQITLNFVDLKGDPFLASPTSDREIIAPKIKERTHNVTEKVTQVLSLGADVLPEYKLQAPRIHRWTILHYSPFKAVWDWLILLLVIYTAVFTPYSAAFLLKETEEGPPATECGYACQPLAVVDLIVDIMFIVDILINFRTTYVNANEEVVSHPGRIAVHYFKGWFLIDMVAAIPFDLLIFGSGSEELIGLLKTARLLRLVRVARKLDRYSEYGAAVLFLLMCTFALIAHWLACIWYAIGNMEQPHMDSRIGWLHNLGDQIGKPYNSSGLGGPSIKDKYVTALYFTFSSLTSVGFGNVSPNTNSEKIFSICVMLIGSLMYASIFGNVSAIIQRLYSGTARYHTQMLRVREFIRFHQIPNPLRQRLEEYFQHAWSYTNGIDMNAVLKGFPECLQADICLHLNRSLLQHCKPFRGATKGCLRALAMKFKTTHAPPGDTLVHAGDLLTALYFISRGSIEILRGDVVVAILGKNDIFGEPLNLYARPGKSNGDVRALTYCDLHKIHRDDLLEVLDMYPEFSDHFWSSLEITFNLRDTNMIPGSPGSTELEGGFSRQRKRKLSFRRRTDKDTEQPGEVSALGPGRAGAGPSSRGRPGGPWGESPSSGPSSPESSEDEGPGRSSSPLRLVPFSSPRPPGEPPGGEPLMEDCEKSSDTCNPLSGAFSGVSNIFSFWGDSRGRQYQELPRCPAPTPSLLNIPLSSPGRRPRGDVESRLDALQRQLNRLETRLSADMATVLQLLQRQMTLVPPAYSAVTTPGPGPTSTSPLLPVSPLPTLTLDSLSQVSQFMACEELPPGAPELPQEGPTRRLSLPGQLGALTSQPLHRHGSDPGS
Assay: hERG inhibition, IonWorks patch clamp electrophysiology
Format: cell-based
Conditions: IonWorks patch clamp
Method: Compounds of the invention were tested for inhibition of the human ether a go-go (hERG) channel using IonWorks™ patch clamp electrophysiology at Essen Bioscience (Welwyn Garden City, England).
pIC50: −log10 of the molar value.

{"molecule": "COc1cc(Nc2cc(Oc3ccc(NC(=O)Nc4cc(C(C)(C)C)cc(N(CCO)S(C)(=O)=O)c4OC)c4ccccc34)ccn2)ccc1C(=O)NCCN1CC[S+]([O-])CC1", "pIC50": "< 4.96"}
{"molecule": "COc1cc(Nc2cc(Oc3ccc(NC(=O)Nc4cc(C(C)(C)C)cc(NS(C)(=O)=O)c4OC)c4ccccc34)ccn2)ccc1P(C)(=O)O", "pIC50": "< 4.96"}
{"molecule": "COc1cc(Nc2cc(Oc3ccc(NC(=O)Nc4cc(C(C)(C)C)cc(NS(C)(=O)=O)c4OC)c4ccccc34)ccn2)cc(OC)c1C(=O)NCCOCCOCCOP(=O)(O)O", "pIC50": "< 4.96"}
{"molecule": "COc1cc(Nc2cc(Oc3ccc(NC(=O)Nc4cc(C(C)(C)C)cc(NS(C)(=O)=O)c4OC)c4ccccc34)ccn2)ccc1C(=O)NC1CCN(C)CC1", "pIC50": "< 5.48"}
{"molecule": "CCOP(C)(=O)c1ccc(Nc2cc(Oc3ccc(NC(=O)Nc4cc(C(C)(C)C)cc(NS(C)(=O)=O)c4OC)c4ccccc34)ccn2)cc1OC (stereo not drawn)", "pIC50": "< 4.96"}
{"molecule": "COc1cc(Nc2cc(Oc3ccc(NC(=O)Nc4cc(C(C)(C)C)cc(NS(C)(=O)=O)c4OC)c4ccccc34)ccn2)cc(OC)c1C(=O)NCCN1CCN(C)CC1", "pIC50": "< 5.43"}
{"molecule": "COc1cc(Nc2cc(Oc3ccc(NC(=O)Nc4cc(C(C)(C)C)cc(NS(C)(=O)=O)c4OC)c4ccccc34)ccn2)ccc1C(=O)NCCN1CCOCC1", "pIC50": "< 5.48"}
{"molecule": "COc1cc(Nc2cc(Oc3ccc(NC(=O)Nc4cc(C(C)(C)C)cc(NC(=O)CO)c4OC)c4ccccc34)ccn2)ccc1C(=O)NCCN1CC[S+]([O-])CC1", "pIC50": "< 4.96"}
{"molecule": "COc1cc(Nc2cc(Oc3ccc(NC(=O)Nc4cc(C(C)(C)C)cc(NS(C)(=O)=O)c4OC)c4ccccc34)ccn2)cc(OC)c1C(=O)NCCOCCOCCO", "pIC50": "< 4.96"}
